Tested on: PFTK1
Construct: gene CDK14
Settings: concentration: 1 μM, replicates: in singlicate; n = 1
measurement_name: %Inh (%)
Quick note: give the figure in %, leave out the unit.

Give the reported %Inh for CN1CCC(n2cnc(-c3ccc(F)cc3)c2-c2ccnc(NC3CCNCC3)n2)CC1 [SB-229482] (system: PFTK1). 0

Also check Cc1cc(N2CCC(NS(=O)(=O)c3ccc(F)cc3)CC2)nc(Nc2cccc(C#N)c2)n1.O=C(O)C(F)(F)F [GSK1653537] 9

Also check "CCc1nc(-c2cccc(C)c2)c(-c2ccnc(NC(=O)c3ccccc3)c2)s1" 10

Also check COc1cc2c(Nc3cccc(NC(=O)c4ccccc4)c3)ncnc2cc1OCCCN1CCOCC1 [GSK223810] 0

Also check CC(=O)Nc1n[nH]c2ncc(-c3ccccc3)cc12 [SB-548492] 12

###

Test system: TRKC
Construct: gene NTRK3
Settings: concentration: 1 μM, replicates: in singlicate; n = 1
measurement_name: %Inh (%)
Quick note: give the figure in %, leave out the unit.

Quick one: %Inh for "CS(=O)(=O)CCNCc1ccc(-c2ccc3ncnc(Nc4ccc(OCc5ccccc5)c(Cl)c4)c3c2)o1.Cl" ? 24

Also check "Cl.Cl.c1ccc(-c2cc3ccncc3cc2OC2CCNCC2)cc1" 0

Also check "COc1ccc(NC(=O)c2ccc(-c3cc(-c4nnc(C)o4)ccc3C)cc2)cc1" 20

Also check "O=C(Nc1n[nH]c2nc(-c3ccco3)c(Br)cc12)c1ccc(CN2CCCC2)cc1.O=C(O)[C@H](O)[C@@H](O)C(=O)O" 0

Also check "FC(F)(F)c1ccc(-c2nn3ncccc3c2-c2ccnc(Nc3cccc(C(F)(F)F)c3)n2)cc1" 0

Also check "COC(=O)c1cccc(NC(=O)NCCNc2ccnc(Nc3ccc(F)cc3)n2)c1" 12

Also check "COc1cc2c(Nc3cccc(NC(=O)c4ccccc4)c3)ncnc2cc1OCCCN1CCOCC1" 0

###

Test system: NEK2
Conditions: concentration: 1 μM, replicates: in singlicate; n = 1
measurement_name: %Inh (%)
Quick note: give the figure in %, leave out the unit.

Quick one: %Inh for Cl.Cl.c1ccc(-c2cc3ccncc3cc2OC2CCNCC2)cc1 [GSK1122999] ? 17

Also check Fc1ccc(Nc2nccc(-c3c(-c4ccc(Cl)cc4)nn4ncccc34)n2)cc1F [GW829058] 16

Also check "CN1c2ccc(-c3ccc(C(=O)NCCO)cc3)cc2-c2[nH]ncc2S1(=O)=O" 6

Also check Nc1nc(-c2ccc3c(N)n[nH]c3c2)cc(N2CCC[C@@H](C(=O)Nc3ccccc3)C2)n1.O=C(O)C(F)(F)F.O=C(O)C(F)(F)F [GSK2288359] 0

###

Tested on: DYRK2;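 note: kd values determined as follow-up on hits from a single-replicate KINOMEscan panel screen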
measurement_name: Kd (nM)
Quick note: give the figure in nM, leave out the unit.

Quick one: Kd for CC(C)(C)OC(=O)NC1CCCN(c2cc(-c3ccc4c(N)n[nH]c4c3)nc(N)n2)C1 (stereo not shown) [GSK2286096] ? 440

###

Tested on: MAPKAPK2
Conditions: concentration: 1 μM, replicates: in singlicate; n = 1
measurement_name: %Inh (%)
Quick note: give the figure in %, leave out the unit.

Quick one: %Inh for CS(=O)(=O)CCNCc1ccc(-c2ccc3ncnc(Nc4ccc(OCc5ccccc5)c(Cl)c4)c3c2)o1.Cl [GW574783] ? 16

Also check Cl.Cn1ccc(-c2cccc(Nc3ccnc4cc(-c5nccs5)ccc34)c2)n1 [GW525701] 21

Also check Fc1cccc(COc2ccc(Nc3ncnc4sc(-c5ccc[nH]5)cc34)cc2Cl)c1 [GW707818] 9

Also check COc1cc2c(Nc3cccc(NC(=O)c4ccccc4)c3)ncnc2cc1OCCCN1CCOCC1 [GSK223810] 5

Also check Nc1nc(-c2ccc3c(N)n[nH]c3c2)cc(N2CCCCC2)n1 [GSK2228768] 3

Also check "Clc1cc(Nc2ncnc3cc[nH]c23)ccc1OCc1ccccn1" 5

Also check COc1ccc(Nc2nccc(N3CCC(NC(=O)c4cccc(NC(C)=O)c4)C3)n2)cc1 (centres unmarked) [GSK1379732] 0

Also check "CN1c2ccc(-c3ccc(C(=O)NCCO)cc3)cc2-c2[nH]ncc2S1(=O)=O" 0

Where do these numbers come from? They come from paper PMC5540273.
